tested on: PPARg:RXRa DBDmut IVT, anti-RXR (DBD mutation: RXRa K156A/R161A, NR concentration 270 nM, RXRa partner concentration 90 nM); test: PBM binding z-score (relative to random genomic background probes); higher = stronger binding; sequences stand for … in GC…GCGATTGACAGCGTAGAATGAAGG
Reported PBM binding z-score by item:
Please reply with the value in numeric form only.

# annotated cases, reported PBM binding z-score shown
ACTAGTTGGTCAGCTGAGGTCACAAACAATTCGG    1.09
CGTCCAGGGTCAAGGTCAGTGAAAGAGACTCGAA    1.82
GAAACGAGGGCAAAGTTGATAGCATCTGTCGACG    5.26
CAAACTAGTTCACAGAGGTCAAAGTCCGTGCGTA    2.43
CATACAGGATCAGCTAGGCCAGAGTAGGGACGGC    -0.103

Continue with the next sequence.
According to the records, this sequence `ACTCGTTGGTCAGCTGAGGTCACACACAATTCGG` displays PBM binding z-score of 0.747
